This section presents molecules with their documented pKd values.
- system name: bovine serum albumin (BSA) (Bos taurus)
- Sequence (P02769 25-607): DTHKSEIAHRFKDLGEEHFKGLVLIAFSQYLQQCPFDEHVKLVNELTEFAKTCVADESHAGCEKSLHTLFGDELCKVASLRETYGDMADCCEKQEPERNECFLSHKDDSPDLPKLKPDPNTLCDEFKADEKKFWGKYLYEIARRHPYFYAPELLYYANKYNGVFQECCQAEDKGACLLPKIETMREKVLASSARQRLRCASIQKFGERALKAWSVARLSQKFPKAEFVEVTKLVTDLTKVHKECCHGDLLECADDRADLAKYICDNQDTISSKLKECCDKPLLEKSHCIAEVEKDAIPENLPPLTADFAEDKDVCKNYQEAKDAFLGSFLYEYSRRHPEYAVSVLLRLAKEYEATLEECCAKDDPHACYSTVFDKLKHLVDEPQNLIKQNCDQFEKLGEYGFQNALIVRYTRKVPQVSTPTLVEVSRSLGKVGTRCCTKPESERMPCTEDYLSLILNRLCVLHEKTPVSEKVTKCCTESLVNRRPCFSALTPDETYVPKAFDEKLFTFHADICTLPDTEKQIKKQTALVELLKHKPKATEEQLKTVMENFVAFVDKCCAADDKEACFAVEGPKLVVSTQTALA
- assay text: Equilibrium dialysis
pKd is a log-scale quantity: -log10 of the concentration expressed in molar.

O=S(=O)(O)C(F)(F)C(F)(F)C(F)(F)C(F)(F)C(F)(F)C(F)(F)F [PFHxS, perfluorohexanesulfonic acid] | 5.81

Turning to the following molecule.
Q. // fetch bovine serum albumin (BSA) (Bos taurus) pKd for O=C(O)C(F)(F)C(F)(F)C(F)(F)C(F)(F)C(F)(F)C(F)(F)C(F)(F)F [PFOA, perfluorooctanoic acid]
A. 5.58

###

This section presents compounds with their documented f (fraction of bound PFAS) values.
- system name: bovine serum albumin (BSA) (Bos taurus)
- assay text: Equilibrium dialysis
- Format: binding
- reported conditions: 37°C, 10 µM BSA in PBS; standard error in parentheses

Some entries whose results are on file:
O=C(O)C(F)(F)C(F)(F)C(F)(F)C(F)(F)C(F)(F)C(F)(F)C(F)(F)F | 0.755 (0.038)
O=C(O)C(F)(F)C(F)(F)C(F)(F)C(F)(F)C(F)(F)C(F)(F)C(F)(F)C(F)(F)C(F)(F)F | 0.983 (0.004)
O=S(=O)(O)C(F)(F)C(F)(F)C(F)(F)C(F)(F)F | 0.249 (0.064)

Turning to the following compound.
Q. // fetch bovine serum albumin (BSA) (Bos taurus) f (fraction of bound PFAS) for O=C(O)C(F)(OC(F)(F)C(F)(F)C(F)(F)F)C(F)(F)F (stereo not shown)
A. 0.265 (0.006)
